- experimental conditions: Ebola virus entry assay, green fluorescence channel
Active and inactive are the calls of the source. Calls follow the shape of the full dose curve.
Give your call using only these classes: Yes for active, No for inactive

Problem: Could you check what this test reported for Cc1nnc(C(C)C)n1C1C[C@H]2CC[C@@H](C1)N2CC[C@H](NC(=O)C1CCC(F)(F)CC1)c1ccccc1 (stereo partly specified) ?
Solution: No

Continuing:
Problem: // param item: `CN1CCN(CCCN2c3ccccc3Sc3ccc(C(F)(F)F)cc32)CC1` ; yields the recorded call
Solution: No

Problem: Name the outcome recorded for `COc1cccc2c1C(=O)c1c(O)c3c(c(O)c1C2=O)C[C@@](O)(C(C)=O)C[C@H]3O[C@H]1C[C@H](N)[C@H](O)[C@H](C)O1` in the assay.
Solution: No

Problem: Please indicate how the test categorized `CN(C)CCCN1c2ccccc2CCc2ccc(Cl)cc21` .
Solution: Yes

Problem: Which outcome did this test record for the compound `CC[C@H]1OC(=O)[C@H](C)[C@@H](O[C@H]2C[C@@](C)(OC)[C@@H](O)[C@H](C)O2)[C@H](C)[C@@H](O[C@@H]2O[C@H](C)C[C@H](N(C)C)[C@@H]2O)[C@](C)(O)C[C@@H](C)CN(C)[C@H](C)[C@@H](O)[C@]1(C)O` ?
Solution: Yes

Problem: Answer briefly: the call reported for C[C@@H]1O[C@@H](O[C@H]2CC[C@@]3(C)[C@H](CC[C@@H]4[C@H]3C[C@@H](O)[C@]3(C)[C@@H](C5=CC(=O)OC5)CC[C@]43O)C2)C[C@H](O)[C@@H]1O[C@H]1C[C@H](O)[C@H](O[C@H]2C[C@H](O)[C@@H](O)[C@@H](C)O2)[C@H](C)O1 (stereo in doubt) in this assay.
Solution: Yes

---

- experimental conditions: Ebola virus entry assay, green fluorescence channel
Calls of active or inactive are those of the source. Calls follow the shape of the full dose curve.
Answer with one of the outcomes active, inactive

Problem: What call does the record list for `CCC1=C[C@@H]2CN(C1)Cc1c([nH]c3ccccc13)[C@@](C(=O)OC)(c1cc3c(cc1OC)N(C)[C@H]1[C@@](O)(C(=O)OC)[C@H](OC(C)=O)[C@]4(CC)C=CCN5CC[C@]31[C@@H]54)C2` ?
Solution: active

Further cases:
Problem: So what was the verdict on `CO[C@H]1C[C@@H]2CC[C@@H](C)[C@@](O)(O2)C(=O)C(=O)N2CCCC[C@@H]2C(=O)O[C@H]([C@H](C)C[C@@H]2CC[C@H](OCCO)[C@H](OC)C2)CC(=O)[C@H](C)C=C(C)[C@@H](O)[C@@H](OC)C(=O)[C@H](C)C[C@H](C)C=CC=CC=C1C` in this test?
Solution: inactive

Problem: Entry `CC[C@]1(O)C[C@H]2CN(CCc3c([nH]c4ccccc34)[C@@](C(=O)OC)(c3cc4c(cc3OC)N(C=O)[C@H]3[C@@](O)(C(=O)OC)[C@H](OC(C)=O)[C@]5(CC)C=CCN6CC[C@]43[C@@H]65)C2)C1` : call = ?
Solution: active

Problem: Hello, I am checking results. What call was entered for `COc1cc2c(c(OC)c1OC)-c1ccc(OC)c(=O)cc1[C@@H](NC(C)=O)CC2` ?
Solution: active

Problem: Which outcome was entered for the molecule CC[C@H]1OC(=O)[C@H](C)[C@@H](O[C@H]2C[C@@](C)(OC)[C@@H](O)[C@H](C)O2)C(C)[C@@H](O[C@@H]2O[C@H](C)C[C@H](N(C)C)[C@@H]2O)[C@](C)(OC)C[C@@H](C)C(=O)[C@H](C)[C@@H](O)[C@]1(C)O (stereo not given in full) in this test?
Solution: active

Problem: Kindly provide the recorded test outcome for the following molecule: `CN1CCC[C@@H]1CCO[C@](C)(c1ccccc1)c1ccc(Cl)cc1`
Solution: active

Problem: Tell me the recorded outcome of this test for `CC[C@]1(O)C[C@@H]2CN(CCc3c([nH]c4ccccc34)[C@@](C(=O)OC)(c3cc4c(cc3OC)N(C)[C@H]3[C@@](O)(C(=O)OC)[C@H](OC(C)=O)[C@]5(CC)C=CCN6CC[C@]43[C@@H]65)C2)C1` .
Solution: active

Problem: What outcome does the record of this test show for C[C@]12CC[C@@H]3c4ccc(O)cc4C[C@@H](CCCCCCCCCS(=O)CCCC(F)(F)C(F)(F)F)[C@H]3[C@@H]1CC[C@@H]2O (stereo not given in full) ?
Solution: active

Problem: Each molecule tested received a call. Report the one for `CO[C@H]1C[C@@H]2CC[C@@H](C)[C@@](O)(O2)C(=O)C(=O)N2CCCC[C@@H]2C(=O)O[C@H]([C@@H](C)C[C@@H]2CC[C@H](O)[C@H](OC)C2)CC(=O)[C@H](C)C=C(C)[C@@H](O)[C@@H](OC)C(=O)[C@H](C)C[C@H](C)C=CC=CC=C1C` .
Solution: active

Problem: Which result was noted for this molecule in the test: `COC(=O)Nc1nc2ccc(C(=O)c3cccs3)cc2[nH]1`
Solution: active

Cited source for all entries: PubChem BioAssay AID1117299
